- Test system: Aβ production in SK-N-BE(2) neuroblastoma cells
- PROTOCOL: Test Example 3: Aβ production inhibition in cell (Aβ40 ELISA, SK-N-BE(2))
- ASSAY_CONTEXT: Homo sapiens, SKNBE2, 6 h, read-out: Test Example 3 IC50, SK-N-BE(2) cells, 6 hours, Aβ40 ELISA normalized by viability
pIC50: −log10 of the molar value.
REPORTED_PROPERTY: pIC50

* Cc1cc(-c2ccc3c(c2)C2(COC(N)=N2)C2(COC2)C(C)(C)O3)cnc1F (centres unmarked) | 6.18
* C#Cc1cncc(-c2ccc3c(c2)C2(COC(N)=N2)C2(COC2)CO3)c1 (centres unmarked) | 6.05
* CC1(C)Oc2ccc(Br)cc2C2(COC(N)=N2)C12COC2 (centres unmarked) | 5.41
* CC#Cc1cc(-c2ccc3c(c2)C2(COC(N)=N2)C2(COC2)CO3)ccn1 (centres unmarked) | 6.24
* CC#Cc1cncc(-c2ccc3c(c2)C2(COC(N)=N2)C2(COC2)C(C)(C)O3)c1 (centres unmarked) | 8.04

----------
- Tested on: Aβ production in SK-N-BE(2) neuroblastoma cells
- PROTOCOL: Test Example 3: Aβ production inhibition in cell (Aβ40 ELISA, SK-N-BE(2))
- ASSAY_CONTEXT: Homo sapiens, SKNBE2, 6 h, read-out: Test Example 3 IC50
pIC50: −log10 of the molar value.
REPORTED_PROPERTY: pIC50

- CC1(C)Oc2ccc(NC(=O)c3ncc(Cl)cc3F)cc2C2(COC(N)=N2)C12COC2 (stereo not drawn) [Example 30]: 8.64
- CC1(C)Oc2ccc(NC(=O)c3ccc(Cl)cn3)cc2C2(COC(N)=N2)C12COC2 (stereo not drawn) [Example 27]: 8.03
- CC1(C)Oc2ccc(NC(=O)c3ccc(F)cn3)cc2C2(COC(N)=N2)C12COC2 (stereo not drawn) [Example 28]: 7.72

----------
- TARGET: BACE1 (Homo sapiens (Human), UniProt P56817)
- Sequence (P56817 75-416): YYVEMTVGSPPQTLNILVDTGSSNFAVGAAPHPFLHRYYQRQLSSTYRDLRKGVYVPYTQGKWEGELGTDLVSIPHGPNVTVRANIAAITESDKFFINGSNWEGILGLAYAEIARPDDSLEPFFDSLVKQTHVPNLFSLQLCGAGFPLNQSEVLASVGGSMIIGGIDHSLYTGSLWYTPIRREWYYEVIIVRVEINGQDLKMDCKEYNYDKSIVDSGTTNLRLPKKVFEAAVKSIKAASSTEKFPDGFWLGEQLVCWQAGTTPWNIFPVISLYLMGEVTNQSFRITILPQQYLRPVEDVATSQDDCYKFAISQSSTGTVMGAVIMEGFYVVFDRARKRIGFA
- PROTOCOL: Test Example 1: BACE1 inhibition by FRET (MCA substrate); IC50 and Ki
- ASSAY_CONTEXT: read-out: Test Example 1 IC50; FRET, MCA substrate 3 μM, BACE1 65 nM, pH 4.4
List of IC50 values.
REPORTED_PROPERTY: IC50 (µM)

* CCCC1Oc2ccc(Br)cc2C2(COC(N)=N2)C12COC2 (single isomer, unassigned) [RP 11a] | 15.6
* CCCC1Oc2ccc(Br)cc2C2(COC(N)=N2)C12COC2 (single isomer, unassigned) [RP 11b] | 17.4
* NC1=NC2(CO1)c1cc(NC(=O)c3ccc(Cl)cn3)ccc1OCC21CC1 (stereo not drawn) | 0.418

----------
- Tested on: Aβ production in SK-N-BE(2) neuroblastoma cells
- PROTOCOL: Test Example 3: Aβ production inhibition in cell (Aβ40 ELISA, SK-N-BE(2))
- ASSAY_CONTEXT: Homo sapiens, SKNBE2, 6 h, read-out: Test Example 3 IC50, SK-N-BE(2) cells, 6 hours, Aβ40 ELISA normalized by viability
Classify: fulfilled when IC50 is strictly less than 400 nM; not fulfilled when IC50 is not.

- NC1=NC2(CO1)c1cc(-c3cncnc3)ccc1OC1(CCC1)C21COC1 (stereo not drawn): not fulfilled
- CC1(C)Oc2ccc(-c3ccc4[nH]ncc4c3)cc2C2(COC(N)=N2)C12COC2 (stereo not drawn): not fulfilled
- COc1cccc(-c2ccc3c(c2)C2(COC(N)=N2)C2(COC2)C2(CCC2)O3)c1F (stereo not drawn): not fulfilled
- NC1=NC2(c3cc(-c4cncnc4)ccc3OCC23CC3)c2cccc(F)c21 (stereo not drawn): fulfilled
- CCOc1cccc(-c2ccc3c(c2)C2(COC(N)=N2)C2(COC2)C2(CCC2)O3)c1 (stereo not drawn): not fulfilled
- NC1=NC2(CO1)c1cc(-c3cncnc3)ccc1OC1(CCCC1)C21COC1 (stereo not drawn): fulfilled
- NC1=NC2(CO1)c1cc(-c3cncc(C(F)F)c3)ccc1OC1(CCC1)C21COC1 (stereo not drawn): not fulfilled
- COc1cncc(-c2ccc3c(c2)[C@@]2(COC(N)=N2)C2(COC2)[C@@H](C)O3)c1 (racemic): not fulfilled
- COc1cccnc1Nc1ccc2c(c1)C1(COC(N)=N1)C1(COC1)CO2 (stereo not drawn): fulfilled
- COc1cnc(C(=O)Nc2ccc3c(c2)[C@@]2(COC(N)=N2)C2(CC2)C(C)(C)O3)cn1: fulfilled
- NC1=NC2(CO1)c1cc(-c3cncnc3)ccc1OC(C1CC1)C21COC1 (stereo not drawn): not fulfilled
- NC1=NC2(c3cc(-c4cncnc4)ccc3OCC23CC3)C(F)(F)CO1 (stereo not drawn): not fulfilled
- CC1(C)Oc2ccc(-c3cccnc3Cl)cc2C2(COC(N)=N2)C12COC2 (stereo not drawn): fulfilled
- CCC(CC)Cc1ccc2c(c1)C1(COC(N)=N1)C1(COC1)C1(CCC1)O2 (stereo not drawn): not fulfilled
- N#Cc1cccc(-c2ccc3c(c2)C2(COC(N)=N2)C2(COC2)C2(CCC2)O3)c1 (stereo not drawn): not fulfilled
- COC/C=C/c1ccc2c(c1)C1(COC(N)=N1)C1(COC1)C(C)(C)O2 (stereo not drawn): not fulfilled
- NC1=NC2(CO1)c1cc(-c3cncnc3)ccc1OC(Cc1ccccc1)C21COC1 (stereo not drawn): fulfilled

----------
List of IC50 values.
- Tested on: Aβ production in SK-N-BE(2) neuroblastoma cells
- PROTOCOL: Test Example 3: Aβ production inhibition in cell (Aβ40 ELISA, SK-N-BE(2))
- ASSAY_CONTEXT: Homo sapiens, SKNBE2, 6 h, read-out: Test Example 3 IC50, SK-N-BE(2) cells, 6 hours, Aβ40 ELISA normalized by viability
REPORTED_PROPERTY: IC50

- CC1(C)Oc2ccc(NC(=O)c3ccc(Cl)cn3)cc2[C@@]2(COC(N)=N2)C12COC2: 0.78 nM
- C[C@@H]1Oc2ccc(-c3cccnc3F)cc2[C@@]2(COC(N)=N2)C12COC2 (racemic): 450 nM
- Cc1cncc(-c2ccc3c(c2)C2(COC(N)=N2)C2(COC2)C2(CCC2)O3)c1 (stereo not shown): 1100 nM
- CC#Cc1cncc(-c2ccc3c(c2)C2(COC(N)=N2)C2(COC2)C(CC)O3)c1 (stereo not shown): 58 nM
- COc1cccnc1Nc1ccc2c(c1)C1(COC(N)=N1)C1(COC1)C1(CCC1)O2 (stereo not shown): 57 nM
- CCOc1cncc(-c2ccc3c(c2)C2(COC(N)=N2)C2(CC2)CO3)c1 (stereo not shown): 160 nM
- CCOc1cc(-c2ccc3c(c2)C2(COC(N)=N2)C2(COC2)C2(CCC2)O3)cc(C(F)(F)F)c1 (stereo not shown): 7300 nM
- NC1=NC2(CO1)c1cc(-c3cccc(F)c3)ccc1OC1(CCC1)C21COC1 (stereo not shown): 580 nM
- NC1=NC2(CO1)c1cc(-c3cncc(OCC(F)(F)C(F)F)c3)ccc1OCC21CC1 (stereo not shown): 2300 nM
- CC1(C)Oc2ccc(-c3cccnc3F)cc2C2(COC(N)=N2)C12COC2 (stereo not shown): 36 nM
- COc1cnc(C(=O)Nc2ccc3c(c2)C2(COC(N)=N2)C2(CC2)CO3)cn1 (stereo not shown): 81 nM
- COCC#Cc1cncc(-c2ccc3c(c2)C2(COC(N)=N2)C2(COC2)CO3)c1 (stereo not shown): 430 nM
- COc1cncc(-c2ccc3c(c2)C2(COC(N)=N2)C2(COC2)C2(CCC2)O3)c1 (stereo not shown): 68 nM
- CC#Cc1cncc(-c2ccc3c(c2)C2(COC(N)=N2)C2(COC2)C(Cc2ccccc2)O3)c1 (stereo not shown): 8.7 nM
- CC1(C)Oc2ccc(-c3cnc4[nH]ccc4c3)cc2C2(COC(N)=N2)C12COC2 (stereo not shown): 310 nM
- NC1=NC2(CO1)c1cc(-c3cnc4[nH]ccc4c3)ccc1OCC21CC1 (stereo not shown): 350 nM
- Cc1cc(F)cc(-c2ccc3c(c2)C2(COC(N)=N2)C2(COC2)C(C)(C)O3)c1 (stereo not shown): 480 nM
- NC1=NC2(CO1)c1cc(-c3cccnc3F)ccc1OC1(CCC1)C21COC1 (stereo not shown): 110 nM
- CC#Cc1cncc(-c2cc3c(cc2F)OCC2(CC2)C32COC(N)=N2)c1 (stereo not shown): 660 nM
- COCc1cnn(-c2ccc3c(c2)C2(COC(N)=N2)C2(COC2)C2(CCC2)O3)c1 (stereo not shown): 7200 nM
- COc1ccc(F)c(-c2ccc3c(c2)C2(COC(N)=N2)C2(COC2)C2(CCC2)O3)c1 (stereo not shown): 660 nM
- CC#Cc1cncc(-c2ccc3c(c2)C2(COC(N)=N2)C2(COC2)C2(CCC2)O3)c1 (stereo not shown): 48 nM
- CC#Cc1cncc(-c2ccc3c(c2)C2(COC(N)=N2)C2(CC2)CO3)c1 (single isomer, unassigned) [RP 52a]: 75 nM
- CC1(C)Oc2ccc(NC(=O)c3ccc(Cl)cn3)cc2[C@@]2(COC(N)=N2)C12CC2: 0.16 nM
- NC1=NC2(CO1)c1cc(NC(=O)c3ncc(Br)cn3)ccc1OCC21CC1 (stereo not shown): 43 nM
- NC1=NC2(CO1)c1cc(-c3cncc(OC(F)F)c3)ccc1OCC21CC1 (stereo not shown): 160 nM
- CC1(C)Oc2ccc(NC(=O)c3ccc(Br)cn3)cc2[C@@]2(COC(N)=N2)C12COC2: 2.2 nM
- NC1=NC2(CO1)c1cc(-c3cncc(C#CC4CC4)c3)ccc1OC1(CCC1)C21COC1 (stereo not shown): 690 nM
- CC1(C)Oc2ccc(-c3cc(F)cnc3Cl)cc2C2(COC(N)=N2)C12COC2 (stereo not shown): 130 nM
- NC1=NC2(CO1)c1cc(Nc3ncccc3Cl)ccc1OC1(CCC1)C21COC1 (stereo not shown): 98 nM
- CC#Cc1cncc(-c2ccc3c(c2)C2(COC(N)=N2)C2(CCC2)CO3)c1 (stereo not shown): 470 nM
- CC1(C)Oc2ccc(NC(=O)c3cnc(C(F)F)cn3)cc2[C@@]2(COC(N)=N2)C12CC2: 0.63 nM
- CC1(C)Oc2ccc(-c3cncc(Cl)n3)cc2C2(COC(N)=N2)C12COC2 (stereo not shown): 450 nM
- CCOc1cc(F)cc(-c2ccc3c(c2)C2(COC(N)=N2)C2(COC2)C2(CCC2)O3)c1 (stereo not shown): 2800 nM
